target: h-Cereblon_DDB1 (hCereblon(M1-L442)_hDDB1(M1-H1140)) (Homo sapiens (Human), UniProt Q96SW2)
Sequence (Q96SW2 whole entry): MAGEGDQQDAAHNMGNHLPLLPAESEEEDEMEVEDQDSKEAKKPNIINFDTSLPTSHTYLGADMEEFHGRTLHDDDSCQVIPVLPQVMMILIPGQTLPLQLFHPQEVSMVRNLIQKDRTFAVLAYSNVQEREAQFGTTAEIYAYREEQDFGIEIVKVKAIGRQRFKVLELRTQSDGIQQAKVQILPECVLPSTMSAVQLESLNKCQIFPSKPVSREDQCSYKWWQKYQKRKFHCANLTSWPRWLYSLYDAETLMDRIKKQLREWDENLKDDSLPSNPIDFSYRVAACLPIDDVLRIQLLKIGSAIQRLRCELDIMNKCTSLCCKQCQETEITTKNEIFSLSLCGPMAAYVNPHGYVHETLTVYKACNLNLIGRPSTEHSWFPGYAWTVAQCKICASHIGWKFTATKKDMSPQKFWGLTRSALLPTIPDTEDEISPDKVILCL
Sequence (Q16531 whole entry partner): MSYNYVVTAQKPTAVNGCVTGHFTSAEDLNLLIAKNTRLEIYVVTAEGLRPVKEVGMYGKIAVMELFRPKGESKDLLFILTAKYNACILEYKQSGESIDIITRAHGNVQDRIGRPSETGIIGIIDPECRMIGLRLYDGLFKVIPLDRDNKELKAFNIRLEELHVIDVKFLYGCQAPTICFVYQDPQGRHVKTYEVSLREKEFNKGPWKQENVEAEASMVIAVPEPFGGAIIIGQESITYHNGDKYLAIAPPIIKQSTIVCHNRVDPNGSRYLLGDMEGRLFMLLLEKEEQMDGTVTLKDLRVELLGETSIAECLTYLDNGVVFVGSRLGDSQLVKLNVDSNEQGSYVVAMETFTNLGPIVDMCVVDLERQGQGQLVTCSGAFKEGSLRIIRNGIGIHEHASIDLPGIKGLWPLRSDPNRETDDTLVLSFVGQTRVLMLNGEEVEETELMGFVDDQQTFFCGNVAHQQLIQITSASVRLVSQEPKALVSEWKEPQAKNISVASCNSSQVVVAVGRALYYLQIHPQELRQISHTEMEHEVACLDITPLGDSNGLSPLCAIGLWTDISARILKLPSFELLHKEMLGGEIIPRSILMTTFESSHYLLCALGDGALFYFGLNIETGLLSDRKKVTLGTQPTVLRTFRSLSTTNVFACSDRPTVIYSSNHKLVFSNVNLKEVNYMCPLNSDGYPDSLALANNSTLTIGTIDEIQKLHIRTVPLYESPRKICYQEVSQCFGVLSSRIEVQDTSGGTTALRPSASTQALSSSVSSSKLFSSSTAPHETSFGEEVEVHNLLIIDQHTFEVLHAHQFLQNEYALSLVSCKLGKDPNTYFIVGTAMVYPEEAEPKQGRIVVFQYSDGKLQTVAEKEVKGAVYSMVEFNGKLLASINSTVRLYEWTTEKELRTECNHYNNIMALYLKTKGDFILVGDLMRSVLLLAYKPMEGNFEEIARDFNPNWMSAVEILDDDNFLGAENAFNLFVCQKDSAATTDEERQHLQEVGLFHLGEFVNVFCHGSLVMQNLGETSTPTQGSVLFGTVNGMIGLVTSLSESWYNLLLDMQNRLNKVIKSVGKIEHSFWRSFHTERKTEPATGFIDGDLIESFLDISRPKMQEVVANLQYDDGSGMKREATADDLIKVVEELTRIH
Entries whose Kd is below 10 nM take Met; entries at or above 10 nM take Not met.

Strictly below 10 nM: is that where Kd of CC(=O)Nc1ccc(C(=O)N2CCC3(C2)NC(=O)NC3=O)cc1 (stereo not drawn) sits?
Not met

Field: below-cutoff. Rule: recorded Kd strictly less than 10 nM. Subject: O=C1CC2(CCN(c3nc4ccccc4s3)C2)C(=O)N1 (stereo not drawn)
Not met

API: query returns whether the molecule falls strictly under 10 nM in Kd. Query: O=C1NC(=O)C2(CCN(C(=O)c3ccc4scnc4c3)C2)N1 (stereo not drawn) [Example 14]
Not met

# check: Kd < 10 nM for O=C1NC(=O)C2(CCN(C(=O)c3ccc4scnc4c3)C2)N1 (stereo not drawn) [Example 9]
Not met

Just wondering, is Kd of O=C1NC(=O)C2(CCN(C(=O)c3ccccc3)C2)N1 (stereo not drawn) below 10 nM?
Met

Decide: Kd of O=C1NC(=O)C2(CCN(C(=O)c3cnn4ccccc34)C2)N1 (stereo not drawn) strictly below 10 nM?
Not met

Is the reported Kd for O=C1CC2(CCN(C(=O)c3cnn4ccccc34)C2)C(=O)N1 (stereo not drawn) strictly below 10 nM?
Met

Threshold test, Kd < 10 nM: O=C1NC(=O)C2(CCN(C(=O)[C@H]3CCCc4ccccc43)C2)N1 (stereo partly drawn)
Met

Report whether reported Kd is lower than 10 nM (strictly) for O=C1CC2(CCN(C(=O)c3ccccc3)C2)C(=O)N1 (stereo not drawn)
Not met

Check if Kd falls below 10 nM for O=C1NC(=O)C2(CCN(c3nc4ncccc4s3)C2)N1 (stereo not drawn) .
Met

# strict comparison: is reported Kd < 10 nM? input = O=C1NC(=O)C2(CCN(c3nc4ccccc4s3)C2)N1 (stereo not drawn)
Not met

Please check: Kd for O=C1NC(=O)C2(CCN(C(=O)c3ccc4scnc4c3)C2)N1 (stereo not drawn) [Example 15] , strictly under 10 nM or not?
Not met

hey, is Kd for COC(=O)c1ccc(N2CCC3(C2)NC(=O)NC3=O)nc1 (stereo not drawn) lower than 10 nM or not?
Met
